So I've got a bunch of compounds here, and I need their concentration at 3 h values.
assay: Plasma concentration in rats after subcutaneous administration (HPLC); details: rat, plasma, sc, 5 mg/kg
Structures can show the parent of a compound that is named as a salt.
Answers are plain numbers, in ng/mL.

>>> measured("N=C(N)c1cccc(C[C@H](NS(=O)(=O)c2ccc3ccccc3c2)C(=O)N2CCC[C@@H]2C(=O)O)c1 [Compound 123, hydrochloride]")
1140
>>> measured("N=C(NO)c1cccc(CC(NS(=O)(=O)c2ccc3ccccc3c2)C(=O)N2Cc3ccccc3CC2C(=O)O)c1 (racemic) [Compound 190, hydroiodide]")
165
>>> measured("N=C(N)c1cccc(CC(NS(=O)(=O)c2ccc3ccccc3c2)C(=O)N2Cc3ccccc3CC2C(=O)O)c1 (racemic)")
285

Hey, can you go through the list below and give me concentration at 3 h for every item?
1. N=C(N)c1cccc(CC(NS(=O)(=O)c2ccc3ccccc3c2)C(=O)N2CCC(C(=O)O)CC2)c1 (racemic)
2. NCc1cccc(CC(NS(=O)(=O)c2ccc3ccccc3c2)C(=O)N2CCC(C(=O)O)CC2)c1 (racemic)
3. N=C(N)c1cccc(CC(NS(=O)(=O)c2ccc3ccccc3c2)C(=O)N2CCCCC2C(=O)O)c1 (racemic)

(A)
1: 815; 2: 533; 3: 314

---

assay: Plasma concentration in rats after oral administration (HPLC); conditions: rat, plasma, po, 100 mg/kg
Structures can show the parent of a compound that is named as a salt.
REPORTED_PROPERTY: concentration at 1.5 h (ng/mL)
Give bare numbers, in ng/mL.

Illustrative cases are given below, each with its answer.
>>> measured("NCc1cccc(CC(NS(=O)(=O)c2ccc3ccccc3c2)C(=O)N2CCC(C(=O)O)CC2)c1 (racemic)")
877
>>> measured("N=C(N)c1cccc(C[C@H](NS(=O)(=O)c2ccc3ccccc3c2)C(=O)N2CCC[C@@H]2C(=O)O)c1 [Compound 123, hydrochloride]")
133

Note: attention shifts to another entry.
Reported concentration at 1.5 h for N=C(N)c1cccc(CC(NS(=O)(=O)c2ccc3ccccc3c2)C(=O)N2CCCCC2C(=O)O)c1 (racemic) was 37

---

target: factor XIIa (Homo sapiens); construct: glandular kallikrein, factor XIIa and plasma kallikrein; test: Inhibition of factor XIIa (Ki); conditions: Table 26
Sequence (P00748 373-615 limits assumed): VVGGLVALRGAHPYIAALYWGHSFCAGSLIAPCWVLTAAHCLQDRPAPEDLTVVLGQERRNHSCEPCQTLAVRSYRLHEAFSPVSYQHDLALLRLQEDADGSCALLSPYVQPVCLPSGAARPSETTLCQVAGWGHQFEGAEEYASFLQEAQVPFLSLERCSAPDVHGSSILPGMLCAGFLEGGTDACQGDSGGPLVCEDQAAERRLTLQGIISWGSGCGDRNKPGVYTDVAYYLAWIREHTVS
Where a name gives a salt, the structure may show the parent alone.
REPORTED_PROPERTY: pKi
Give bare numbers, as −log10 of the molar value.

Illustrative cases are given below, each with its answer.
>>> measured("CC1CCN(C(=O)C(Cc2cccc(N)c2)NS(=O)(=O)c2ccc3ccccc3c2)CC1 (racemic)")
3.57
>>> measured("COC(=O)[C@H]1CCCN1C(=O)[C@H](Cc1cccc(C(=N)N)c1)NS(=O)(=O)c1ccc2ccccc2c1 [Compound 124, hydrochloride]")
3.22

Reported pKi for CC1CCN(C(=O)C(Cc2cccc(C(=N)N)c2)NS(=O)(=O)c2cccc3cccnc23)CC1 (racemic) [Compound 171, hydroiodide] was 3.11

---

test: Plasma concentration in rats after subcutaneous administration (HPLC); conditions: rat, plasma, sc, 5 mg/kg
So I've got a bunch of compounds here, and I need their concentration at 5 h values.
Answers are plain numbers, in ng/mL.

>>> measured("N=C(N)c1cccc(CC(NS(=O)(=O)c2ccc3ccccc3c2)C(=O)N2Cc3ccccc3CC2C(=O)O)c1 (racemic)")
248

Hey, can you go through the list below and give me concentration at 5 h for every item?
1. N=C(NO)c1cccc(CC(NS(=O)(=O)c2ccc3ccccc3c2)C(=O)N2Cc3ccccc3CC2C(=O)O)c1 (racemic) [Compound 190, hydroiodide]
2. NCc1cccc(CC(NS(=O)(=O)c2ccc3ccccc3c2)C(=O)N2CCC(C(=O)O)CC2)c1 (racemic)
3. N=C(N)c1cccc(CC(NS(=O)(=O)c2ccc3ccccc3c2)C(=O)N2CCC(C(=O)O)CC2)c1 (racemic)

(A)
1. 138
2. 455
3. 550
